Source listed as ChEMBL document CHEMBL4266012.

ASSAY COMMENT: Clearance in Sprague-Dawley rat at 2 mg/kg, iv or 2 mg/kg, po by LC-MS/MS analysis
Assay type: ADME, organism-based
CONDITIONS: in vivo
VALUE KIND: clearance (mL/min/kg)
Please respond with the number in mL/min/kg and leave the unit unwritten.

Task: Query (molecule): Cc1[nH]nc(Nc2ccnc3ccc(S(=O)(=O)C(C)(C)C)cc23)c1C ; field requested: clearance
Output: 12

###

ASSAY COMMENT: AUC in Beagle dog at 2 mg/kg, po by LC-MS/MS analysis
Type: ADME, organism-based, Canis lupus familiaris
CONDITIONS: in vivo
VALUE KIND: AUC
Answer format reminder: number followed by unit.

Task: Query (compound): COc1cc2nccc(Nc3n[nH]c(C)c3C)c2cc1S(=O)(=O)C(C)(C)C ; field requested: AUC
Output: 1900 ng·h/mL

###

ASSAY COMMENT: Clearance in Beagle dog at 1.1 mg/kg, iv or 2 mg/kg, po by LC-MS/MS analysis
Assay type: ADME, organism-based, Canis lupus familiaris
CONDITIONS: in vivo
VALUE KIND: clearance (mL/min/kg)
Please respond with the number in mL/min/kg and leave the unit unwritten.

Task: Query (compound): COc1cc2nccc(Nc3n[nH]c(C)c3C)c2cc1S(=O)(=O)C(C)(C)C ; field requested: clearance
Output: 20

###

ASSAY COMMENT: Volume of distribution at steady state in Sprague-Dawley rat at 1.1 mg/kg, iv or 2 mg/kg, po by LC-MS/MS analysis
Assay type: ADME, organism-based
CONDITIONS: in vivo, read-out: Vdss
VALUE KIND: Vd (L/kg)
Please respond with the number in L/kg and leave the unit unwritten.

Task: Query (compound): COc1cc2nccc(Nc3n[nH]c(C)c3C)c2cc1S(=O)(=O)C(C)(C)C ; field requested: Vd
Output: 1.1
